All figures here come from ChEMBL document CHEMBL1697723.

test system: Hepatotoxicity; assay: Human drug-induced liver injury (DILI) modelling dataset from Ekins et al
test readout: Hepatotoxicity

>  <molecule>
Cc1scc2c1N(C(=O)CN1CCN(C)CC1)c1ccccc1NC2=O [TELENZEPINE]

>  <study target>
Hepatotoxicity

>  <observed measurement>
DILI negative (test set)

$$$$
>  <molecule>
Nc1ccc(O)cc1

>  <study target>
Hepatotoxicity

>  <observed measurement>
DILI negative (test set)

$$$$
>  <molecule>
CC(C)(Sc1cc(C(C)(C)C)c(O)c(C(C)(C)C)c1)Sc1cc(C(C)(C)C)c(O)c(C(C)(C)C)c1

>  <study target>
Hepatotoxicity

>  <observed measurement>
DILI negative (test set)

$$$$

###

system: Hepatotoxicity; test: Human drug-induced liver injury (DILI) modelling dataset from Ekins et al; conditions: Liver

>  <compound>
Cc1c(F)c(N2CCNC(C)C2)cc2c1c(=O)c(C(=O)O)cn2C1CC1 (configuration not stated) [GREPAFLOXACIN]

>  <Hepatotoxicity>
DILI positive (test set)

$$$$
>  <compound>
Nc1ncn([C@@H]2O[C@H](CO)[C@@H](O)[C@H]2O)c(=O)n1 [AZACITIDINE]

>  <Hepatotoxicity>
DILI positive (test set)

$$$$
>  <compound>
CC(C)c1cccc(C(C)C)c1O [PROPOFOL]

>  <Hepatotoxicity>
DILI negative (test set)

$$$$
>  <compound>
ClC(Cl)Cl [CHLOROFORM]

>  <Hepatotoxicity>
DILI positive (test set)

$$$$
>  <compound>
CC1(C)S[C@@H]2[C@H](NC(=O)[C@H](NC(=O)N3CCN(S(C)(=O)=O)C3=O)c3ccccc3)C(=O)N2[C@H]1C(=O)[O-].[Na+] [MEZLOCILLIN SODIUM]

>  <Hepatotoxicity>
DILI positive (test set)

$$$$
>  <compound>
Cc1ccc(C(=O)c2cc(O)c(O)c([N+](=O)[O-])c2)cc1 [TOLCAPONE]

>  <Hepatotoxicity>
DILI positive (test set)

$$$$
>  <compound>
Cc1ccc(-c2cc(C(F)(F)F)nn2-c2ccc(S(N)(=O)=O)cc2)cc1 [CELECOXIB]

>  <Hepatotoxicity>
DILI positive (test set)

$$$$
>  <compound>
CN(C)C(=N)N=C(N)N [METFORMIN]

>  <Hepatotoxicity>
DILI negative (test set)

$$$$
>  <compound>
CC[C@H]1OC(=O)[C@H](C)C(=O)[C@H](C)[C@@H](O[C@@H]2O[C@H](C)C[C@H](N(C)C)[C@H]2O)[C@](C)(OC)C[C@@H](C)C(=O)[C@H](C)[C@H]2N(CCCCn3cnc(-c4cccnc4)c3)C(=O)O[C@]12C [TELITHROMYCIN]

>  <Hepatotoxicity>
DILI positive (test set)

$$$$
>  <compound>
O=C1CN(/N=C/c2ccc([N+](=O)[O-])o2)C(=O)N1 [NITROFURANTOIN]

>  <Hepatotoxicity>
DILI positive (test set)

$$$$
>  <compound>
OCCO [ETHYLENE GLYCOL]

>  <Hepatotoxicity>
DILI positive (test set)

$$$$

###

test system: Hepatotoxicity; test: Human drug-induced liver injury (DILI) modelling dataset from Ekins et al

>  <compound>
O[C@H]1[C@H](O)[C@@H](O)[C@H](O)[C@@H](O)[C@H]1O [INOSITOL]

>  <Hepatotoxicity>
DILI negative (test set)

$$$$
>  <compound>
CN(C)CCN(Cc1cccs1)c1ccccn1

>  <Hepatotoxicity>
DILI positive (test set)

$$$$
>  <compound>
N=C(N)NCCN1CCCCCCC1.N=C(N)NCCN1CCCCCCC1.O=S(=O)(O)O [GUANETHIDINE SULFATE]

>  <Hepatotoxicity>
DILI positive (test set)

$$$$
>  <compound>
C[N+](C)(C)CCOP(=O)(O)OP(=O)([O-])OC[C@H]1O[C@@H](n2ccc(N)nc2=O)[C@H](O)[C@@H]1O [CITICOLINE]

>  <Hepatotoxicity>
DILI negative (test set)

$$$$
